- System: MS2 coat protein
- test-method-notes: apparent KD of MS2 coat protein; designed switch direction (-1 OFF switch, 1 ON switch): -1; higher = weaker reporter binding
- condition-details: Eterna round: R95; input ligand: none
Rule: apparent KD of MS2 coat protein of 100 nM or more gives Y; anything lower gives N.

// inclusive: apparent KD of MS2 coat protein at least 100 nM? input: UGGUGGAAGCAGGAUAUGCUAGAAGUGUAGUUUGCAGAAGGGCUAACAUGAGGAUCACCCAUGUAAGAGGUGUU [JR_E6_Sub053] (puzzle: Exclusion 6)
Y

Others:
Is reported apparent KD of MS2 coat protein greater than or equal to 100 nM here: GAAGAGACAGGAUAUACAUGAGGAUCACCCAUGUGAGUAAGGUAGAGGCGGAGGAGAUGUAGAAGGGUCAAAGA [JR_Exclu3_Sub016] (puzzle: Exclusion 3)
N

CGUGACUCAGGAUAUCUAUAGUAUCACAUGAGGAUCACCCAUGUCCAGCGAAAGCUGGAGGGAGAAGGGAGUCACG [Fiskers Ex 5 - 42] (puzzle: Exclusion 5) ?
Y

Now this one: AAGAAGCAAGGAUAUACAGAGGAGAGGAAAGCAAGAGGAGGACAUGAGGAUCACCCAUGUAGAAGGUGCAGAGA [JR_Exclu2_Sub019] (puzzle: Exclusion 2)
N

Please do the same for UAAUACAAGCAAAGAUCCUACAUGAGGAUCACCCAUGUGCUCGUCUUGUAAAGUACUAUCACGAAAGUGAUAGUACA [Mat - Sensor v3 - turn-off var 1 - Eli Mod - D77] (puzzle: Sensor v3, turn-off variant 1) as well.
Y
